# System: VEGF-121 (Homo sapiens), P15692-9
# Sequence: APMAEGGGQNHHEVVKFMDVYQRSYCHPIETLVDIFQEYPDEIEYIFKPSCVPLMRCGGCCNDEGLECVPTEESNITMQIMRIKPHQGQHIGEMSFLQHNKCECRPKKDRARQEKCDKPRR
# assayExplanation: filter
# experimentalConditions: PDGF-3Heg-VEGF; NapdU, 2'-OMe
resultType: Kd (nM)
Supply the numeric figure in nM, leaving out any unit text.

### Prompt Look at this sequence and give its reported Kd. CGACAGCATGTATGCACATCTCCGTTCAAGTGCTTGTAGGATTTAAATGG [5169-4_102]
### Response 0.14

Attribution: patent US20160177307
